# Test description: Cytotoxicity against wild-type CHO cells assessed as cell growth inhibition at 10 uM after 72 hrs by MTS assay
# Format: cell-based, Cricetulus griseus
# Particulars: chinese hamster, read-out: GI
Quantity: inhibition at 72 h, 10 µM (%)

INSERT INTO measurements (line_notation, uom, recorded_value) VALUES
  ('CN1CCN(c2ncnc3oc(-c4ccccc4C(F)(F)F)nc23)CC1', '%', 3),
  ('CN1CCN(c2ncnc3oc(-c4ccccc4Cl)nc23)CC1', '%', 0),
  ('CC(=O)N1CCN(c2ncnc3oc(-c4ccccc4C(F)(F)F)nc23)CC1', '%', 12),
  ('Clc1ccccc1-c1nc2c(NCC3CCCCC3)ncnc2o1', '%', 0),
  ('COCCNc1ncnc2oc(-c3ccccc3Cl)nc12', '%', 0),
  ('COc1ccc(C(=O)c2c(C)n(CCN3CCOCC3)c3cc(I)ccc23)cc1', '%', 0),
  ('CCCCNc1ncnc2oc(-c3ccccc3Cl)nc12', '%', 0),
  ('CC(=O)N1CCN(c2ncnc3oc(-c4ccccc4Cl)nc23)CC1', '%', 23),
  ('Clc1ccccc1-c1nc2c(N3CCOCC3)ncnc2o1', '%', 0),
  ('CCN1CCN(c2nc(C)nc3oc(-c4ccccc4Cl)nc23)CC1', '%', 0),
  ('CCN1CCN(c2ncnc3oc(-c4ccccc4C(F)(F)F)nc23)CC1', '%', 10),
  ('CCN1CCN(c2ncnc3oc(-c4ccccc4F)nc23)CC1', '%', 10),
  ('CN1CCN(c2ncnc3oc(-c4ccccc4)nc23)CC1', '%', 0),
  ('Clc1ccccc1-c1nc2c(NCC3CCNCC3)ncnc2o1', '%', 0),
  ('CCN1CCN(c2ncnc3oc(-c4ccccc4Cl)nc23)CC1', '%', 1),
  ('CN1CCN(c2ncnc3oc(-c4ccccc4F)nc23)CC1', '%', 8),
  ('CCN1CCN(c2nc(C)nc3[nH]c(-c4ccccc4Cl)nc23)CC1', '%', 30),
  ('CCN1CCN(c2ncnc3oc(-c4ccccc4)nc23)CC1', '%', 0),
  ('Cc1nc(N2CCN(C)CC2)c2nc(-c3ccccc3Cl)oc2n1', '%', 0),
  ('CCCCCNc1ncnc2oc(-c3ccccc3Cl)nc12', '%', 6),
  ('CCCN1CCN(c2ncnc3oc(-c4ccccc4Cl)nc23)CC1', '%', 0);

====

# Measurement target: Cannabinoid receptor 2 (Homo sapiens, UniProt P34972)
# Sequence (P34972 whole entry): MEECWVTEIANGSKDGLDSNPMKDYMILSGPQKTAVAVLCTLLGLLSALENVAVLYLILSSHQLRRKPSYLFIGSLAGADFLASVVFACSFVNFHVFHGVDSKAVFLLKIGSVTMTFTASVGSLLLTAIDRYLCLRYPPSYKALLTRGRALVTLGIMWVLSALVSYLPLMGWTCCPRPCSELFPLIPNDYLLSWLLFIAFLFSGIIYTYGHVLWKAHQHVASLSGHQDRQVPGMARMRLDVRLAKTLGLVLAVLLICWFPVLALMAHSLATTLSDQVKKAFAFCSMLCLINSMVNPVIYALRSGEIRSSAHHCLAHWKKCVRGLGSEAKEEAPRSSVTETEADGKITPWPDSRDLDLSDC
pKi: −log10 of the molar value.
Entries and their measured pKi follow.
Quantity: pKi

INSERT INTO measurements (line_notation, sign_qualifier, recorded_value) VALUES
  ('Cc1nc(N2CCN(C)CC2)c2nc(-c3ccccc3Cl)oc2n1', '=', 7.56),
  ('CCCN1CCN(c2ncnc3oc(-c4ccccc4Cl)nc23)CC1', '<', 6.00),
  ('CN1CCN(c2ncnc3oc(-c4ccccc4Cl)nc23)CC1', '=', 6.46);

====

# Test description: Cytotoxicity against CB2-expressing CHO cells assessed as cell growth inhibition at 10 uM after 72 hrs by MTS assay
# Format: cell-based, Cricetulus griseus
# Particulars: chinese hamster, read-out: GI
Decide by inhibition at 72 h, 10 µM: equal to or exceeding 10% means Yes, less means No.

INSERT INTO measurements (line_notation, class) VALUES
  ('CC(=O)N1CCN(c2ncnc3oc(-c4ccccc4C(F)(F)F)nc23)CC1', 'No'),
  ('CCN1CCN(c2ncnc3oc(-c4ccccc4)nc23)CC1', 'No'),
  ('CN1CCN(c2ncnc3oc(-c4ccccc4C(F)(F)F)nc23)CC1', 'No'),
  ('CCCCCNc1ncnc2oc(-c3ccccc3Cl)nc12', 'Yes'),
  ('CCCCNc1ncnc2oc(-c3ccccc3Cl)nc12', 'Yes'),
  ('CC(=O)N1CCN(c2ncnc3oc(-c4ccccc4Cl)nc23)CC1', 'Yes'),
  ('CCN1CCN(c2ncnc3oc(-c4ccccc4C(F)(F)F)nc23)CC1', 'No'),
  ('CCN1CCN(c2nc(C)nc3[nH]c(-c4ccccc4Cl)nc23)CC1', 'No');

====

# microsomal CLint at 0.2 µM listing for each entry below
# Test description: Intrinsic clearance in CD1 mouse liver microsomes at 200 nM up to 40 mins by UPLC-MS/MS analysis
# Type: ADME, microsome
# Particulars: read-out: CLH
Quantity: microsomal CLint at 0.2 µM (µL/min/mg)

INSERT INTO measurements (line_notation, quantity, recorded_value) VALUES
  ('CC(=O)N1CCN(c2ncnc3oc(-c4ccccc4Cl)nc23)CC1', 'microsomal CLint at 0.2 µM', 194),
  ('CN1CCN(c2ncnc3oc(-c4ccccc4Cl)nc23)CC1', 'microsomal CLint at 0.2 µM', 1180);

====

Below: a set of entries, each annotated with reported IC50.
# Measurement target: Cannabinoid receptor 2 (Homo sapiens, UniProt P34972)
# Test description: Neutral antagonist activity at human CB2 assessed as inhibition of WIN552122-induced suppression of cAMP formation preincubated for 15 mins followed by forskolin addition for 30 mins measured after 1 hr by HTRF assay
# Format: functional
Quantity: IC50 (nM)

INSERT INTO results (line_notation, uom, recorded_value) VALUES
  ('CCN1CCN(c2nc(C)nc3oc(-c4ccccc4Cl)nc23)CC1', 'nM', 120),
  ('Cc1nc(N2CCN(C)CC2)c2nc(-c3ccccc3Cl)oc2n1', 'nM', 930);

====

# inhibition at 72 h, 10 µM values compiled below
# Test description: Cytotoxicity against human HT-29 cells assessed as cell growth inhibition at 10 uM after 72 hrs by MTS assay
# Format: cell-based
# Particulars: read-out: GI
Quantity: inhibition at 72 h, 10 µM

INSERT INTO measurements (line_notation, quantity, recorded_value) VALUES
  ('CCN1CCN(c2ncnc3oc(-c4ccccc4F)nc23)CC1', 'inhibition at 72 h, 10 µM', '24%'),
  ('COCCNc1ncnc2oc(-c3ccccc3Cl)nc12', 'inhibition at 72 h, 10 µM', '0%'),
  ('CCN1CCN(c2nc(C)nc3oc(-c4ccccc4Cl)nc23)CC1', 'inhibition at 72 h, 10 µM', '16%'),
  ('CCN1CCN(c2ncnc3oc(-c4ccccc4)nc23)CC1', 'inhibition at 72 h, 10 µM', '0%'),
  ('CCCCCNc1ncnc2oc(-c3ccccc3Cl)nc12', 'inhibition at 72 h, 10 µM', '10%'),
  ('CCN1CCN(c2ncnc3oc(-c4ccccc4Cl)nc23)CC1', 'inhibition at 72 h, 10 µM', '4%');

====

Notes on Ki obtained with UniProtKB P34972.
Quantity: Ki

INSERT INTO measurements (line_notation, recorded_value) VALUES
  ('Clc1ccccc1-c1nc2c(N3CCOCC3)ncnc2o1', '> 1000 nM'),
  ('CN1CCN(c2ncnc3oc(-c4ccccc4)nc23)CC1', '> 1000 nM'),
  ('CCN1CCN(c2nc(C)nc3oc(-c4ccccc4Cl)nc23)CC1', '23 nM'),
  ('COc1ccc(C(=O)c2c(C)n(CCN3CCOCC3)c3cc(I)ccc23)cc1', '91 nM'),
  ('Clc1ccccc1-c1nc2c(NCC3CCCCC3)ncnc2o1', '> 1000 nM'),
  ('Clc1ccccc1-c1nc2c(NCC3CCNCC3)ncnc2o1', '> 1000 nM'),
  ('CN1CCN(c2ncnc3oc(-c4ccccc4F)nc23)CC1', '> 1000 nM'),
  ('CCN1CCN(c2ncnc3oc(-c4ccccc4F)nc23)CC1', '> 1000 nM'),
  ('CCCCNc1ncnc2oc(-c3ccccc3Cl)nc12', '> 1000 nM'),
  ('CCN1CCN(c2ncnc3oc(-c4ccccc4)nc23)CC1', '> 1000 nM'),
  ('CCCCCNc1ncnc2oc(-c3ccccc3Cl)nc12', '> 1000 nM'),
  ('COCCNc1ncnc2oc(-c3ccccc3Cl)nc12', '> 1000 nM');

====

# Species on record: Homo sapiens
# Test description: Selectivity index, ratio of Ki for human CB1 to Ki for human CB2
Quantity: Ratio Ki

INSERT INTO assay_data (line_notation, quantity, recorded_value) VALUES
  ('CCN1CCN(c2ncnc3oc(-c4ccccc4Cl)nc23)CC1', 'Ratio Ki', '> 3'),
  ('Cc1nc(N2CCN(C)CC2)c2nc(-c3ccccc3Cl)oc2n1', 'Ratio Ki', '> 36.3'),
  ('CCN1CCN(c2nc(C)nc3oc(-c4ccccc4Cl)nc23)CC1', 'Ratio Ki', 12.7),
  ('CC(=O)N1CCN(c2ncnc3oc(-c4ccccc4C(F)(F)F)nc23)CC1', 'Ratio Ki', '> 3.9'),
  ('CN1CCN(c2ncnc3oc(-c4ccccc4C(F)(F)F)nc23)CC1', 'Ratio Ki', '> 6.4'),
  ('CC(=O)N1CCN(c2ncnc3oc(-c4ccccc4Cl)nc23)CC1', 'Ratio Ki', '> 1.4'),
  ('CN1CCN(c2ncnc3oc(-c4ccccc4Cl)nc23)CC1', 'Ratio Ki', '> 2.8'),
  ('CCN1CCN(c2ncnc3oc(-c4ccccc4C(F)(F)F)nc23)CC1', 'Ratio Ki', '> 10.4');
